assay system: 14-3-3σ/ERα (Homo sapiens, UniProt P03372+P31947)
Construct: The 14-3-3 σ isoform (full-length for mass spectrometry and fluorescence anisotropy assays, ΔC for crystallography); made in house; host or cells: E. coli Rosetta 2(DE3)pLysS, pPROEX HTb vector
test protocol: Mass spectrometry dose response, compound binding to 14-3-3σ in the presence of ERα phosphopeptide
protocol conditions: 100 nM compound, 100 nM 14-3-3σ, ERα-peptide 2 µM, 1h
observed property: Percentage (%) bound of compound to 14-3-3σ, ERα 1h

Here is how some compounds turned out for Percentage (%) bound of compound to 14-3-3σ, ERα 1h.
compound	units	measurement
O=C(CCl)NCC1CCN(C(=O)C2(Nc3ccccc3)CCC2)CC1	%	0
Cl.NC1CCC(Oc2ccccc2)(C(=O)N2CCC(CNC(=O)CCl)CC2)CC1 (stereo not shown)	%	0
O=C(CCl)NCC1CCN(C(=O)C2(Nc3ccccc3)CCCC2)CC1	%	0
NC1CCC(Nc2ccc(Cl)cc2)(C(=O)N2CCC(CNC(=O)CCl)CC2)CC1 (stereo not shown)	%	36.3
O=C(CCl)N1CCC2(CC1)CC(CNC(=O)C1(Nc3ccc(Cl)cc3)CCOCC1)C2	%	21.7

a: O=C(CCl)CCC1CCN(C(=O)C2(Nc3ccc(Cl)cc3)CCOCC2)CC1
b: Cl.O=C(CCl)NCC1CCN(C(=O)C2(Nc3ccccc3)CCNCC2)CC1
Query block: Hi there, can you help? I need to know whether a or b has lower measured Percentage (%) bound of compound to 14-3-3σ, ERα 1h. Record your answer as the label of the chosen record.
Result block: b

----------
assay system: 14-3-3σ/C-RAF (Homo sapiens)
Construct: The 14-3-3 σ isoform (full-length for mass spectrometry and fluorescence anisotropy assays, ΔC for crystallography); made in house; host or cells: E. coli Rosetta 2(DE3)pLysS, pPROEX HTb vector
Sequence (P31947 1-248): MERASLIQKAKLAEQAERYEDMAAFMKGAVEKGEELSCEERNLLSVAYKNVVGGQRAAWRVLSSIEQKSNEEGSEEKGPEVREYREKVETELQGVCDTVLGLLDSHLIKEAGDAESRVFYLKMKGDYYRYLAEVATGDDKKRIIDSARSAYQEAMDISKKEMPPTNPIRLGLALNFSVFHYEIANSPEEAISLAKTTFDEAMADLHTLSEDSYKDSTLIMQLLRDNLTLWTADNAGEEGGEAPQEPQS
test protocol: Mass spectrometry dose response, compound binding to 14-3-3σ in the presence of C-RAF phosphopeptide
protocol conditions: 100 nM compound, 100 nM 14-3-3σ, C-RAF peptide 18 µM, 24h
Source text: Two orthogonal assays were developed for screening. For the primary assay, mass spectrometry (MS) was used to monitor the formation of the covalent bond between the compound and the native cysteine (Cys38 on 14-3-3σ) (Figure 1D). […] As a secondary assay, fluorescence anisotropy (FA) was used. […]
observed property: Percentage (%) bound of compound to 14-3-3σ, CRAF 24h

Here is how some molecules turned out for Percentage (%) bound of compound to 14-3-3σ, CRAF 24h.
O=C(CCl)N1CCC2(CC1)CN(C(=O)C1(Nc3ccc(Cl)cc3)CCOCC1)C2 2.1
O=C(CCl)NCCC1CCN(C(=O)C2(Nc3ccc(Cl)cc3)CCOCC2)CC1 0

a: O=C(CCl)NCCC1CCN(C(=O)C2(Nc3ccc(Cl)cc3)CCNCC2)CC1
b: O=C(CCl)NCC1CCN(C(=O)C2(Nc3ccc(Cl)cc3)CCC(F)(F)CC2)CC1
Query block: Hi there, can you help? I need to know whether a or b has lower measured Percentage (%) bound of compound to 14-3-3σ, CRAF 24h. Record your answer as the label of the chosen record.
Result block: a

----------
assay system: 14-3-3σ/ERα (Homo sapiens, UniProt P03372+P31947)
Construct: The 14-3-3 σ isoform (full-length for mass spectrometry and fluorescence anisotropy assays, ΔC for crystallography); made in house; host or cells: E. coli Rosetta 2(DE3)pLysS, pPROEX HTb vector
test protocol: Mass spectrometry dose response, compound binding to 14-3-3σ in the presence of ERα phosphopeptide
protocol conditions: 100 nM compound, 100 nM 14-3-3σ, ERα-peptide 2 µM, 8h
observed property: Percentage (%) bound of compound to 14-3-3σ, ERα 8h

molecule	units	measurement
CC1CC(Nc2ccc(Cl)cc2)(C(=O)N2CCC(CNC(=O)CCl)CC2)CC(C)O1 (centres unmarked) [compound 178]	%	36.8
O=C(CCl)NCC1CCN(C(=O)C2(Nc3ccccc3)CCC2)CC1 [compound 98]	%	0

1: O=C(CCl)NCC1CCN(C(=O)C2(Nc3ccccc3)CCCC2)CC1 [compound 120]
2: O=C(CCl)N1CCC2(CC1)CN(C(=O)C1(Nc3ccc(Cl)cc3)CCOCC1)C2 [compound 161]
Query block: Hi there, can you help? I need to know whether 1 or 2 has lower measured Percentage (%) bound of compound to 14-3-3σ, ERα 8h. Record your answer as the label of the chosen record.
Result block: 1
(1: 0%, 2: 7.8%)

----------
assay system: 14-3-3σ/ERα (Homo sapiens, UniProt P03372+P31947)
Construct: The 14-3-3 σ isoform (full-length for mass spectrometry and fluorescence anisotropy assays, ΔC for crystallography); made in house; host or cells: E. coli Rosetta 2(DE3)pLysS, pPROEX HTb vector
test protocol: Mass spectrometry dose response, compound binding to 14-3-3σ in the presence of ERα phosphopeptide
protocol conditions: 100 nM compound, 100 nM 14-3-3σ, ERα-peptide 2 µM, 8h
observed property: Percentage (%) bound of compound to 14-3-3σ, ERα 8h

compound	assay system	measurement
O=C(CCl)NCC1CCN(C(=O)C2(Oc3ccccc3)CCCC2)CC1	14-3-3σ/ERα (Homo sapiens, UniProt P03372+P31947)	5.3
Cl.O=C(CCl)NCC1CCN(C(=O)C2(Oc3ccc(Cl)cc3)CCNCC2)CC1	14-3-3σ/ERα (Homo sapiens, UniProt P03372+P31947)	31.4
O=C(CCl)N1CC2(CCN(C(=O)C3(Nc4ccc(Cl)cc4)CCOCC3)CC2)C1	14-3-3σ/ERα (Homo sapiens, UniProt P03372+P31947)	8.6
CC1CC(Nc2ccc(Cl)cc2)(C(=O)NCC2CC3(CCN(C(=O)CCl)CC3)C2)CC(C)O1 (centres unmarked)	14-3-3σ/ERα (Homo sapiens, UniProt P03372+P31947)	50.1
CC1(C)CC(Nc2ccc(Cl)cc2)(C(=O)N2CCC(CNC(=O)CCl)CC2)CC(C)(C)O1	14-3-3σ/ERα (Homo sapiens, UniProt P03372+P31947)	3.0
O=C(CCl)NCC1CCN(C(=O)C2(Nc3ccc(Cl)cc3)CCOCC2)CC1	14-3-3σ/ERα (Homo sapiens, UniProt P03372+P31947)	19.6

1: CC(C)(Oc1ccc(Cl)cc1)C(=O)N1CCC(NC(=O)CCl)CC1
2: Cl.NC1CCC(Nc2ccccc2)(C(=O)N2CCC(CNC(=O)CCl)CC2)CC1 (centres unmarked)
Query block: Hi there, can you help? I need to know whether 1 or 2 has lower measured Percentage (%) bound of compound to 14-3-3σ, ERα 8h. Record your answer as the label of the chosen record.
Result block: 1

----------
assay system: 14-3-3σ/C-RAF (Homo sapiens)
Construct: The 14-3-3 σ isoform (full-length for mass spectrometry and fluorescence anisotropy assays, ΔC for crystallography); made in house; host or cells: E. coli Rosetta 2(DE3)pLysS, pPROEX HTb vector
test protocol: Mass spectrometry dose response, compound binding to 14-3-3σ in the presence of C-RAF phosphopeptide
protocol conditions: 100 nM compound, 100 nM 14-3-3σ, C-RAF peptide 18 µM, 1h
observed property: Percentage (%) bound of compound to 14-3-3σ, CRAF 1h

I: O=C(CCl)NCC1CCN(C(=O)C2(Oc3ccc(Cl)cc3)CCC(F)(F)CC2)CC1
II: CC1(C)CC(Nc2ccc(Cl)cc2)(C(=O)N2CCC(CNC(=O)CCl)CC2)CC(C)(C)O1
Query block: Hi there, can you help? I need to know whether I or II has lower measured Percentage (%) bound of compound to 14-3-3σ, CRAF 1h. Record your answer as the label of the chosen record.
Result block: II

----------
assay system: 14-3-3σ/C-RAF (Homo sapiens, UniProt P31947)
Construct: The 14-3-3 σ isoform (full-length for mass spectrometry and fluorescence anisotropy assays, ΔC for crystallography); made in house; host or cells: E. coli Rosetta 2(DE3)pLysS, pPROEX HTb vector
test protocol: Mass spectrometry dose response, compound binding to 14-3-3σ in the presence of C-RAF phosphopeptide
protocol conditions: 100 nM compound, 100 nM 14-3-3σ, C-RAF peptide 18 µM, 8h
observed property: Percentage (%) bound of compound to 14-3-3σ, CRAF 8h

compound	measurement
O=C(CCl)NCC1CCN(C(=O)C2(Nc3ccc(Cl)cc3)CC2)CC1	1.7

P: O=C(CCl)NCC1CCN(C(=O)C2(Oc3ccc(Cl)cc3)CC2)CC1
Q: O=C(CCl)NCC1CC2(CCN(C(=O)C3(Nc4ccc(Cl)cc4)CCOCC3)CC2)C1
Query block: Hi there, can you help? I need to know whether P or Q has lower measured Percentage (%) bound of compound to 14-3-3σ, CRAF 8h. Record your answer as the label of the chosen record.
Result block: P
(P: 0.1%, Q: 0.7%)
